Data provenance: PubChem BioAssay (EPA / NIEHS)

- Read-out: Human Leukocyte Antigen - DR isotype (HLADR), HLA-DRA (gene 3122)
- RUN_DESCRIPTION: BSK_CASM3C_HLADR: BioMAP Diversity Plus: CASM3C Assay for Human Leukocyte Antigen - DR isotype (HLADR) Biomarker Activity (AID 2283043);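 further: cell-surface HLA-DR protein level quantified by ELISA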
- CONDITION_DETAILS: primary human coronary artery smooth muscle cells; actives raise or lower the signal
Active and inactive are the calls of the source. How the source made its calls: active means hit-call score of the fitted dose curve at least 0.9, where 1 is the maximum; inactive means score below 0.9.
Parameter call: string, one of true = active, false = inactive

A selection of reference data follows.
Name the outcome recorded for CCCCCCCCOC(=O)c1cc(O)c(O)c(O)c1 in the assay.
true

Name the outcome recorded for OC12N=C(c3ccccc3)SC1Cc1cc(Cl)ccc12 (stereo not given) in the assay.
false

Name the outcome recorded for Cc1oc2c(NC(=O)c3c(Cl)cccc3Cl)cccc2c1C(C)(C)O in the assay.
false

Name the outcome recorded for Cc1cc(F)ccc1-c1cc(N2CC[C@@H](O)[C@H]2CO)ncc1N(C)C(=O)C(C)(C)c1cc(C(F)(F)F)cc(C(F)(F)F)c1 in the assay.
true

Name the outcome recorded for Clc1cc(Cl)c2c(c1)N=C1CCCCCN1C2 in the assay.
false

---
Name the outcome recorded for CCCCCCCCCC(=O)O in the assay.
false

Name the outcome recorded for O=C(O)Cn1c(=O)n(Cc2ccc(Br)cc2F)c(=O)c2ccc(Cl)cc21 in the assay.
false

Name the outcome recorded for NC(=O)c1nc(-c2cccc(-c3cc(F)ccc3OCC(F)(F)C(F)(F)F)c2)n[nH]1 in the assay.
true

Name the outcome recorded for O=C1O[C@H]([C@@H](O)CO)C(O)=C1O in the assay.
false

Name the outcome recorded for CN(C)c1ccc(C(=C2C=CC(=[N+](C)C)C=C2)c2ccc(N(C)C)cc2)cc1 in the assay.
true

Name the outcome recorded for C[C@]12CC[C@@H]3c4ccc(O)cc4CC[C@H]3[C@@H]1CCC2=O in the assay.
false
